- experimentalSystem: T1, cyno PRLR (Biacore antigen) (cyno, UniProt A0A2K5WXK1 25-234)
- T1 construct: also called cyPRLR
- T1 sequence: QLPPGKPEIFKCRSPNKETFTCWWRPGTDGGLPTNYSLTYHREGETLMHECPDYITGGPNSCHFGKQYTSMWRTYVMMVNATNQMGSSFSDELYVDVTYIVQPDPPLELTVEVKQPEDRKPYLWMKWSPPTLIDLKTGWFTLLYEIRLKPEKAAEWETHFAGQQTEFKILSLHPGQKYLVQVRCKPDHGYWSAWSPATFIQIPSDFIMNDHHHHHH
- testDetails: SPR Biacore
measurementName: log10 of koff (log10 of the value in s⁻¹)
Could you please treat all values as log10 of koff in s⁻¹?

Known log10 of koff results, listed for orientation:
binder: Ab5 (antibody, V domains shown, murine monoclonal, isotype G2a; also called murine Ab5) VH: QVQLQQPGAELVRPGTSVKLSCKASGYTFTSFWMHWVKQRPGQGLEWIGVIDPSDTYTNYNQKFKGKATLTVDTSSSTAYMQLSSLTSEDSAVYYCARGDYSNWFTYWGQGTLVTVSA VL: DVVMTQTPLSLPVSLGDQASISCRSSQRLVHSNGNTYLHWYLQKPGQSPKLLIYKVSNRFSGVPDRFSGSGSGTDFTLKISRVEAEDLGVYFCSQSTHVPWTFGGGTKLEIK
log10 of koff: -3.63
--
binder: chAb7 (antibody, human IgG1, kappa, V domains shown, chimeric, murine variable and human G1/kappa constant regions) VH: QVQLQQPGAELVMPGTSVKLSCKASGYTFTSYWIHWVKQRPGQGLEWIGEIDPSDSYTNYNQKFKGKATLTVDRSSSTAYMQLSSLTSEDSAVYYCGRSFFTNWFAYWGQGTLVTVSA VL: DVVMTQTPLSLPVSLGDQASISCRSSQSLVHSNGNTYLHWYLQKPGQSPKLLIYKVSNRFSGVPDRFSGSGSGTDFTLKINRVEAEDLGVYFCSQSTHVPFTFGSGTKLEIKT
log10 of koff: -4.44
--
binder: Ab55 (antibody, human IgG1, kappa, V domains shown, humanized from Ab7 (back mutations on Ab39); G1; also called Ab4 HC.1a.2 and Ab4 LC.1a) VH: EVQLVQSGAEVKKPGSSVKVSCKASGYTFTSYWIHWVRQAPGQGLEWIGEIDPSDSYTNYNQKFKGRATLTVDRSSSTAYMELSSLRSEDTAVYYCGRSFFTNWFAYWGQGTLVTVSS VL: DVVMTQTPLSLSVTPGQPASISCRSSQSLVHSNGNTYLHWYLQKPGQSPQLLIYKVSNRFSGVPDRFSGSGSGTDFTLKISRVEAEDVGVYFCSQSTHVPFTFGGGTKVEIKR
log10 of koff: -4.01

Incoming: Item chAb5 (antibody, human IgG1, kappa, V domains shown, chimeric, murine variable and human G1/kappa constant regions) VH: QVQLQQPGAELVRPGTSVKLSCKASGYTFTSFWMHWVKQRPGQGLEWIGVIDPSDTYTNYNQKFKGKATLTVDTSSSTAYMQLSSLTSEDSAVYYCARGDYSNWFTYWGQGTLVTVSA VL: DVVMTQTPLSLPVSLGDQASISCRSSQRLVHSNGNTYLHWYLQKPGQSPKLLIYKVSNRFSGVPDRFSGSGSGTDFTLKISRVEAEDLGVYFCSQSTHVPWTFGGGTKLEIKT has what recorded log10 of koff?
Outgoing: -3.65

Incoming: Reported log10 of koff for Ab19 (antibody, human IgG1, kappa, V domains shown, humanized from Ab6; G1; also called Ab1 HC.1a and Ab1 LC.1a) VH: EVQLVQSGAEVKKPGSSVKVSCKASGYTFTTYWMHWVRQAPGQGLEWIGEIDPSDSYSNYNQKFKDRATLTVDKSTSTAYMELSSLRSEDTAVYYCARNGGLGPAWFSYWGQGTLVTVSS VL: DIQMTQSPSSVSASVGDRVTITCKASQYVGTAVAWYQQKPGKSPKLLIYSASNRYTGVPSRFSDSGSGTDFTLTISSLQPEDFATYFCQQYSSYPWTFGGGTKVEIKR : what is it?
Outgoing: -3.14

Values from patent US20170022281A1
